# target desc: TBG (Homo sapiens)
# Sequence (P05543 21-415): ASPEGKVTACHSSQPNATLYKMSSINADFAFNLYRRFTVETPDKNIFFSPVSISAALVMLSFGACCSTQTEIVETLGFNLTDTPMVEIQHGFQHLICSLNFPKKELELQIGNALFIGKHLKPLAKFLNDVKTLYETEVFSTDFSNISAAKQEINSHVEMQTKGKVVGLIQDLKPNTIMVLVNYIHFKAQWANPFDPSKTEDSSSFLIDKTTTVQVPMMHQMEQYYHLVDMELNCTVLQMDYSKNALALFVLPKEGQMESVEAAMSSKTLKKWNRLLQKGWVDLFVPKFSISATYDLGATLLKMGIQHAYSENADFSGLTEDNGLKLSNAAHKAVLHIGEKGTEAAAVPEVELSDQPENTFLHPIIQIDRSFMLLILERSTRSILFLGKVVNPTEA
# assay method text: Binding of T4 derivatives to TBG, from antibody binding in presence and absence of blocking agent (Example 7)
measurement label: Ratio (% bound to antibody, thiomersal absent / present)
Give the figure only, with no unit attached.

* N[C@H](Cc1cc(I)c(Oc2cc(I)c(O)c(I)c2)c(I)c1)C(=O)O | 0.48
* COC(=O)[C@H](Cc1cc(I)c(Oc2cc(I)c(O)c(I)c2)c(I)c1)NC(C)=O | 0.90
* CC(=O)N[C@@H](Cc1cc(I)c(Oc2cc(I)c(O)c(I)c2)c(I)c1)C(=O)N(C)C [L-T4/M, N-Acetyl-L-T4-dimethylamide] | 1.00

Hi! What's the reported Ratio (% bound to antibody, thiomersal absent / present) for `COC(=O)[C@@H](Cc1cc(I)c(Oc2cc(I)c(O)c(I)c2)c(I)c1)NC(C)=O` on TBG (Homo sapiens)? 1.00

And for CCNC(=O)[C@H](Cc1cc(I)c(Oc2cc(I)c(O)c(I)c2)c(I)c1)NC(C)=O [L-T4/L, N-Acetyl-L-T4-monoethylamide] ? 0.35

And for `CC(=O)N[C@@H](Cc1cc(I)c(Oc2cc(I)c(O)c(I)c2)c(I)c1)C(=O)O` ? 0.42

And for N[C@@H](Cc1cc(I)c(Oc2cc(I)c(O)c(I)c2)c(I)c1)C(=O)O [L-T4, thyroxine, reference compound] ? 0.24

These data points were gathered from patent US4366143A.
